test: Half life in 12 hrs fasted male Sprague-Dawley rat at 50 mg/kg measured upto 48 hrs by LC-MS/MS analysis; type: ADME, organism-based; settings: in vivo
In this section we review reported half-life values for a set of compounds.
Your answer should be a plain number; it is taken to be in h.

>>> recordedvalue("Cc1ccc(C(=O)NCCc2c[nH]c3ccc(N(C)C)cc23)c(O)c1")
4.56

Switching to the query record.
Challenge: # half-life lookup, item `Cc1ccc(C(=O)NCCc2c[nH]c3ccc(N(C)C)cc23)c(O)c1.Cl`
Response given: 3.96

* * *

molecules and their reported IC50 at 24 h
assay: Cytotoxicity against mouse HT-22 cells assessed as cell viability incubated for 24 hrs by CCK-8 method; assay type: toxicity, cell-based

>>> recordedvalue("COc1cccc(O)c1C(=O)NCCc1c[nH]c2ccccc12")
"8.06 µM"

Challenge: # lookup: IC50 at 24 h of `Cc1ccc(O)c(C(=O)NCCc2c[nH]c3ccccc23)c1`
Response given: 51.1 µM

Challenge: What value of measured IC50 at 24 h is listed for `Cc1ccc(C(=O)NCCc2c[nH]c3ccc(F)cc23)c(O)c1` ?
Response given: > 100 µM

Challenge: Which IC50 at 24 h value is on record for `Cc1ccc(C(=O)NCCc2c[nH]c3c(Cl)cccc23)c(O)c1` ?
Response given: > 100 µM

Challenge: Report IC50 at 24 h for `Cc1ccc(C(=O)NCCc2c[nH]c3cc(F)ccc23)c(O)c1` please.
Response given: > 100 µM

Challenge: Could you share which IC50 at 24 h value was measured for `O=C(NCCc1c[nH]c2ccccc12)c1cc(Br)ccc1O` ?
Response given: 64.7 µM
